Test system: NCI-H226 lung
assay_name: NCI-60 one-dose screen, 48 h (100 = growth as untreated, 0 = no growth, -100 = all killed)
test_conditions: 10 µM unless noted
About 83,000 compounds went through this panel and 20% of them were active in at least one assay; those are over-represented in the sample as a whole. Calls of active or inactive are those of the source. How the source made its calls: active means growth percent below 10; inactive means the rest.
reported_metric: growth

# smiles_entry, reported_metric, experimental_result
measured = [
    ("O=c1c2cc(F)ccc2sc2c(N3CCNCC3)nc3ccccc3c12", "growth", "88% (inactive)"),
    ("Cc1ccc(-c2nc(N3CCN(CC(=O)Nc4ccc(Cl)c(C(F)(F)F)c4)CC3)c3ccccc3n2)cc1", "growth", "90.3% (inactive)"),
]

Query: What value of measured growth is listed for O=C(N/N=C/[C@@H](O)[C@H](O)[C@H](O)CO)c1ccc(NC(=O)c2cccnc2)cc1 ?
Response: 99.9% (inactive)

Query: # query: growth of entry O=C(CCCCCCSc1nc(-c2ccccc2)cc(-c2ccccc2)n1)NO
Response: 56% (inactive)

Query: I have this molecule here, Cc1cc2[nH]c(=O)c3c4ncccc4cn3c2cc1C , and I need its recorded growth.
Response: 51.8% (inactive)

Query: Sample CCOC(=O)CCN(C(=O)Nc1ccccc1)C1CCCCC1 — what was its growth?
Response: 115% (inactive)

Query: Consider the molecule shown here: COc1cccc(Oc2ccccc2NC(=O)CNC(=O)c2cccc3ccccc23)c1 What is its recorded growth?
Response: 53.7% [5 µM] (inactive)

Query: Query (molecule): CN1C(=O)CNC(=O)[C@H](NC(=O)c2nc3ccccc3cc2O)CSSC[C@H]1C(=O)NCCCc1nc2ccccc2cc1O ; field requested: growth
Response: 85.8% (inactive)

Query: Can you share its growth? I mean this molecule: CCN(CC)CCCNc1nc2ccccc2c2c(=O)c3cc(Cl)ccc3sc12
Response: 82.1% (inactive)

Query: // returns reported growth for input COc1c(B(O)O)cc(C)cc1-c1nc2ccc3[nH]ncc3c2c2c1CCCC2
Response: 73.7% (inactive)

Query: Given the entry Cc1ccc(-c2nc(N3CCN(C(=O)c4ccc(OC(F)(F)F)cc4)CC3)c3ccccc3n2)cc1 , report its measured growth.
Response: 83.6% (inactive)

* * *

Test system: SN12C renal
assay_name: NCI-60 one-dose screen, 48 h (100 = growth as untreated, 0 = no growth, -100 = all killed)
test_conditions: 10 µM unless noted
Compounds without any hit were thinned out: in the full panel of roughly 83,000, 20% have a hit.
Recorded measurements of growth, one per entry
Give the quantity in %, number only.

Use the examples below as a reference point.
# smiles_entry, value_unit, growth
measured = [
    ("COc1ccc(/C=C2\\Oc3cc(OCCN4CCC(Cc5ccccc5)CC4)ccc3C2=O)cc1OC", "%", 65.6),
    ("Cc1cccc2c(=O)c3c(sc12)c(NCc1ccccc1)nc1ccccc13", "%", 93.6),
]

Query: # value lookup — system SN12C renal, readout growth, item NCCCNc1nc2ccccc2c2c(=O)c3cc(F)cc(Cl)c3sc12
Response: 82.7

* * *

Test system: CCRF-CEM leukemia
assay_name: NCI-60 one-dose screen, 48 h (100 = growth as untreated, 0 = no growth, -100 = all killed)
test_conditions: 10 µM unless noted
Compounds without any hit were thinned out: in the full panel of roughly 83,000, 20% have a hit.
The threshold is inclusive: growth of exactly 70% counts as TRUE; values below receive FALSE.

# molecule, class_label
records = [
    ("Cc1ccc(C(=O)NN2C(=O)CSC2c2cccc([N+](=O)[O-])c2)cn1 (stereo not given)", "TRUE"),
    ("O=c1[nH]c2c(ccc3cnccc32)c2c1CCC2", "FALSE"),
    ("N#C/C(=C\\c1ccc(F)cc1)n1nc2cccc(F)c2n1", "FALSE"),
]

Query: Record COc1ccc(NC(=O)n2nc(/C=C\c3ccc(O)c(OC)c3)cc2/C=C\c2ccc(O)c(OC)c2)cc1 ; criterion: growth no lower than 70%. Met?
Response: FALSE

Query: Does the reported growth for CCN1C(=O)N(CC)C2Nn3c(s/c(=C\c4ccc([N+](=O)[O-])cc4)c3=O)=NC21 (stereo not given) fall at or above the 70% mark?
Response: FALSE

Query: Assess whether reported growth for Cc1ccc(/C=N\NC(=O)c2[nH]c3ccc(F)cc3c2-c2ccccc2)cc1 sits at 70% or higher.
Response: FALSE

* * *

System: SN12C renal
assay_name: NCI-60 one-dose screen, 48 h
test_conditions: 10 µM unless noted
Method: Growth inhibition of the SN12C human tumor cell line is measured as a screen for anti-cancer activity. Cells are grown in 96 well plates and exposed to the test compound for 48 hours. Compounds are tested at a single concentration, which is 10^-5 M for most compounds. The reported endpoint is percent growth (GI% or GIPRCNT), where numbers from 0 - 100% represent growth inhibition, and numbers from -100% - 0 represent cell death. For example, a value of 40 represents 60% growth inhibition. […]
This is part of a sample that, as a whole, favours compounds with a hit. Of some 83,000 tested, about 20% had one in any assay. Calls of active or inactive are those of the source. Rule for the calls: active = growth percent below 10; inactive = the rest.
Write down one outcome, taken from y = active, n = inactive

// known answers, use as guide
# compound, class_label
data = [
    ("COc1cccc(-c2nc(-c3ccc(NS(=O)(=O)c4ccccc4)cc3)[nH]c2-c2ccnc(Br)c2)c1", "n"),
    ("CCN1C(=O)N(CC)C2Nn3c(s/c(=C4\\C(=O)Nc5ccccc54)c3=O)=NC21 (configuration not stated)", "n"),
    ("CS(=O)(=O)N(c1cc(-c2ccc3ncnc(Nc4ccc(F)c(Cl)c4)c3c2)cnc1Cl)S(C)(=O)=O", "n"),
]

Query: Please state the recorded outcome for this compound: CCc1ccc(Oc2c(-c3ccc(OCc4ccc(Cl)cc4)cc3O)nn(C)c2C(F)(F)F)cc1
Response: y

Query: Please indicate how the test categorized COc1ccc(-c2nnc(COc3ccc(Cl)cc3Cl)o2)cc1OC .
Response: n

Query: GET /call?item= N#CC1=C(N)Oc2c(sc3c(Br)cccc23)C1c1ccc([N+](=O)[O-])cc1 (configuration not stated) returns the recorded outcome of this test.
Response: n

Query: // outcome(item) with item = COc1cccc(/C=C2\C=C(c3ccccc3)N(Cc3ccccc3)C2=O)c1
Response: n

Query: Called result for C=C1C(=O)O[C@H]2[C@H]1CC/C(COC(=O)CCC(=O)NCCOCCOCC(=O)Nc1ccc(OC)c(C(N)=O)c1O)=C\CC[C@@]1(C)O[C@@H]21
Response: n

Query: Dear all, I need the recorded test outcome for COc1cccc2c(=O)c3c(sc12)c(NCCCN)nc1ccccc13 , thank you.
Response: n

Query: Called result for C=C1C(=O)O[C@H]2[C@H]1CC/C(COC(=O)CSCC(=O)OC/C1=C/CC[C@@]3(C)O[C@H]3[C@H]3OC(=O)C(=C)[C@@H]3CC1)=C\CC[C@@]1(C)O[C@@H]21
Response: n

Query: In this assay, the call recorded for CCOC(=O)/C(C#N)=C\Nc1ccc2ncnc(Nc3ccc(Cl)cc3Cl)c2c1 was what?
Response: n

Query: Status in this test for NCCCNc1nc2ccccc2c2c(=O)c3cc(C(F)(F)F)ccc3sc12 ?
Response: n

* * *

Test system: MOLT-4 leukemia
assay_name: NCI-60 one-dose screen, 48 h (100 = growth as untreated, 0 = no growth, -100 = all killed)
test_conditions: 10 µM unless noted
The panel holds about 83,000 compounds, 20% with a hit somewhere; the sample as a whole holds those more often.
The entries below are paired with their reported growth.
Value expressed in %; do not type the unit.

Below: 5 molecules and their reported growth.
# molecule, tested_system, reported_metric, value_unit, experimental_result
rows = [
    ("CCN(CC)CCCNc1nc2ccccc2c2c(=O)c3cc(Cl)ccc3sc12", "MOLT-4 leukemia", "growth", "%", 5.32),
    ("O=C(Nn1c(NCC(=O)N2c3ccccc3Sc3ccccc32)nnc1-c1ccc(O)cc1)c1ccccc1", "MOLT-4 leukemia", "growth", "%", 125),
    ("CC(=O)OC[C@H]1OC(Sc2sc(C(=O)c3ccc(Cl)cc3)c(N)c2-c2nc3ccccc3s2)[C@H](OC(C)=O)[C@@H](OC(C)=O)[C@@H]1OC(C)=O (stereo partly drawn)", "MOLT-4 leukemia", "growth", "%", 97),
    ("Nc1nc(-c2cccc3ccccc23)cc2ccccc12", "MOLT-4 leukemia", "growth", "%", -3.33),
    ("N#C/C(=C\\c1ccc(F)cc1)n1nc2cccc(F)c2n1", "MOLT-4 leukemia", "growth", "%", 52.3),
]

Query: Which growth is listed for CC(=O)OC[C@H]1OC(Sc2sc(C(=O)c3ccc(Br)cc3)c(N)c2-c2nc3ccccc3s2)[C@H](OC(C)=O)[C@@H](OC(C)=O)[C@H]1OC(C)=O (stereo partly drawn) ?
Response: 79.3

Query: Need growth, item CNC(=O)c1cc(-n2ccc3cc(NC(=O)c4ccc(N5CCOCC5)c(C(F)(F)F)c4)ccc32)ccn1
Response: 34.6

Query: What value of growth has been reported for the following molecule? COc1cc(/C=N/NC(=O)c2ccc(C)nc2)cc(OC)c1OC
Response: 57.8

Query: Which growth reading was recorded for the molecule CCOC(=O)C1=C(N)Oc2c(sc3c(C)cccc23)C1c1ccc(Cl)cc1 (stereo not drawn) ?
Response: 32.9

Query: Request the reported growth associated with C[C@H](C(=O)Nc1ccc(S(N)(=O)=O)cc1)S(=O)(=O)c1ccccc1
Response: 105
